Test system: PRKCD;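 further: KINOMEscan kinase panel screen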
conditionLabel: concentration: 1 μM, replicates: in singlicate; n = 1
outcomeMeasure: %Inh (%)

- compound: "COC(=O)c1c(-c2ccccc2)c2cc(C)ccc2c(=O)n1Cc1ccccc1"
  dataValue: 3
- compound: "Cc1ccccc1COc1cc(-n2cnc3cc(Cl)ccc32)sc1C(N)=O"
  dataValue: 12
- compound: "Cc1cccc(-c2cc(-c3c[nH]nc3-c3ccccn3)ccn2)c1"
  dataValue: 0
- compound: "Nc1ncnc2c1ncn2-c1cccc2ccccc12"
  dataValue: 16
- compound: "Cl.c1ccc(Cn2cnc3cc(Nc4ncnc5ccccc45)ccc32)cc1"
  dataValue: 0
- compound: "CCS(=O)(=O)c1ccc(OC)c(Nc2ncc(-c3ccc(F)cc3)o2)c1.Cl"
  dataValue: 2
- compound: "COc1cc(Nc2nccc(N3CCC(NC(=O)C4COc5ccccc5O4)C3)n2)cc(OC)c1OC (stereo not shown)"
  dataValue: 18
